Taken from patent US20110190365A1.

experiment_description: log P by HPLC on a reversed-phase column (C18), EEC Directive 79/831 Annex V.A8
Type: physicochemical
conditions_used: HPLC, reversed-phase C18, mobile phase with formic acid; read-out: log P (HCOOH)

{"compound": "Nc1c(-c2cc(Cl)cc(Cl)c2)c(C(F)(F)F)nn1-c1ncc(C(=O)NCc2ccccn2)c(C(F)(F)F)n1", "chromatographic logP": 3.54}
{"compound": "Cc1cc(-n2nc(C(F)(F)F)c(-c3cc(Cl)cc(Cl)c3)c2N)ccc1C(=O)NCc1ccccn1", "chromatographic logP": 3.35}
{"compound": "Cc1cc(-n2nc(C(F)(F)F)c(-c3ccc(Cl)c(Cl)c3)c2N)ccc1C(=O)O", "chromatographic logP": 3.92}
{"compound": "Cc1cc(-n2nc(C(F)(F)F)c(-c3cc(Cl)cc(Cl)c3)c2I)ccc1C(=O)NCc1ccccn1", "chromatographic logP": 4.29}
{"compound": "N#Cc1cc(N)ccc1-n1cncn1", "chromatographic logP": 1.01}
{"compound": "Cc1cc(-n2nc(C(F)(F)F)c(-c3cc(Cl)cc(Cl)c3)c2[S+](C)[O-])ccc1C(=O)NCc1ccccn1 (stereo not shown)", "chromatographic logP": 3.11}
{"compound": "Cc1cc(-n2nc(C(F)(F)F)c(-c3cc(Cl)cc(Cl)c3)c2Cl)ccc1C(=O)NC(C)C(F)(F)F (stereo not shown)", "chromatographic logP": 5.59}
{"compound": "Cc1cc(-n2nc(C(F)(F)F)c(-c3cc(Cl)cc(Cl)c3)c2Br)ccc1C(=O)NC(C)C(F)(F)F (stereo not shown)", "chromatographic logP": 5.53}
{"compound": "CSc1c(-c2cc(Cl)cc(Cl)c2)c(C(F)(F)F)nn1-c1ccc(C(=O)NC(C)C(F)(F)F)c(C)c1 (stereo not shown)", "chromatographic logP": 5.48}
{"compound": "N#Cc1cc(-n2nc(C(F)(F)F)c(-c3cc(Cl)cc(C(F)(F)F)c3)c2N)ccc1F", "chromatographic logP": 4.54}
{"compound": "CCOC(=O)c1ccc(-n2nc(C(F)(F)F)c(-c3ccc(Cl)c(Cl)c3)c2N)cc1C", "chromatographic logP": 5.24}
{"compound": "N#Cc1cc(-n2nc(C(F)(F)F)c(-c3cc(Cl)cc(C(F)(F)F)c3)c2N)ccc1-n1cncn1", "chromatographic logP": 3.92}
{"compound": "N#Cc1cc(-n2nc(C(F)(F)F)c(-c3cc(Cl)cc(C(F)(F)F)c3)c2N)ccc1-n1nc[nH]c1=O", "chromatographic logP": 3.45}
{"compound": "Cc1cc(-n2nc(C(F)(F)F)c(-c3cc(Cl)cc(Cl)c3)c2N)ccc1C(=O)O", "chromatographic logP": 4.04}
{"compound": "COC(=O)c1ccc(NN)cc1C [VII-A-008, Methyl 4-hydrazino-2-methylbenzoate]", "chromatographic logP": 0.4}
{"compound": "COC(=O)c1ccc(-n2nc(C(F)(F)F)c(-c3cc(Cl)cc(Cl)c3)c2N)cc1C", "chromatographic logP": 5.08}
